Source: patent US8822517B2

Quick reference: inhibition at 1 µM of the listed items.
biological target: dopaminergic D3 receptor (Homo sapiens, UniProt P35462); assay: Binding assay D3 (h), [3H]methyl-spiperone, CHO cells; set-up: expressed in transfected cells; host or cells: CHO cells; conditions: read-out: D3 [%]
Sequence (P35462 whole entry): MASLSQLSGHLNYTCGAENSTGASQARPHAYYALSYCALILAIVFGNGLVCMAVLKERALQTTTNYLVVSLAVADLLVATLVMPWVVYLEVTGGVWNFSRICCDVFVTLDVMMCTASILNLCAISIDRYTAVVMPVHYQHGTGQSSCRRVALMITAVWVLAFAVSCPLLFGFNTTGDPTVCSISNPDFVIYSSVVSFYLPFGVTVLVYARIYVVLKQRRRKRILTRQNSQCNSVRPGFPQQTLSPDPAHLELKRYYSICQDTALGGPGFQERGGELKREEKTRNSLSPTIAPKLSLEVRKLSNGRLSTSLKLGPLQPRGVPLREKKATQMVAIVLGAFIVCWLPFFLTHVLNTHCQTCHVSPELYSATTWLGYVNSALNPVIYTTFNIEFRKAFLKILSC
Numeric only. Scale: %

// output inhibition at 1 µM; input `O=S(=O)(NCCCCN1CCN(c2cccc3c2OCCO3)CC1)c1cccc(F)c1` ; system dopaminergic D3 receptor (Homo sapiens, UniProt P35462)
83

// output inhibition at 1 µM; input `O=c1[nH]c2cccc(N3CCN(CCCCNS(=O)(=O)c4ccc(F)cc4)CC3)c2[nH]1` ; system dopaminergic D3 receptor (Homo sapiens, UniProt P35462)
97

// output inhibition at 1 µM; input `O=S(=O)(NCCCCN1CCC(c2noc3cc(F)ccc23)CC1)c1ccc(F)c(F)c1` ; system dopaminergic D3 receptor (Homo sapiens, UniProt P35462)
98

// output inhibition at 1 µM; input `Cc1cc(S(=O)(=O)NCCCN2CCC(c3noc4cc(F)ccc34)CC2)c(C)s1` ; system dopaminergic D3 receptor (Homo sapiens, UniProt P35462)
99

// output inhibition at 1 µM; input `O=S(=O)(NCCN1CC=C(c2c[nH]c3ccc(F)cc23)CC1)c1cccc(F)c1` ; system dopaminergic D3 receptor (Homo sapiens, UniProt P35462)
95

---

molecular target: dopaminergic D2 receptor (Homo sapiens); assay: Binding assay D2S (h), [3H]methyl-spiperone, HEK-293 cells; set-up: expressed in transfected cells; host or cells: HEK-293 cells; details: read-out: D2 [%]
Sequence (P14416 1-414 isoform P14416-2): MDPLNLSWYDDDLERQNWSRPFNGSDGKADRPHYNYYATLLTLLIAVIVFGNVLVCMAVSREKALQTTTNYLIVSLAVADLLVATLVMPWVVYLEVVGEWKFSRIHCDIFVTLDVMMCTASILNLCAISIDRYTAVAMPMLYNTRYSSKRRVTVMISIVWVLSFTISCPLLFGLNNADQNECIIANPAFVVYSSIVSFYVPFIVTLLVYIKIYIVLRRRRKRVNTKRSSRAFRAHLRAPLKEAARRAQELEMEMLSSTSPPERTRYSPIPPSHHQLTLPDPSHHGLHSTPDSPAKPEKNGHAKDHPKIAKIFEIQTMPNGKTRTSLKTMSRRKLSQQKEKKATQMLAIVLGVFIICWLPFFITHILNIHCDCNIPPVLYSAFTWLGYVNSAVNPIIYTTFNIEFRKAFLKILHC
recorded metric: inhibition at 1 µM (%)
Numeric only. Scale: %

Recorded inhibition at 1 µM, per entry:
O=S(=O)(NCCCN1CCC(c2noc3cc(F)ccc23)CC1)c1cccc(F)c1 = 106
O=S(=O)(NCCCCN1CCC(c2noc3cc(F)ccc23)CC1)c1ccc2c(c1)OCCO2 = 98
O=S(=O)(NCCCCN1CCN(c2cccc3c2OCCO3)CC1)c1ccc2cn[nH]c2c1 = 68
O=S(=O)(NCCCN1CCN(c2nsc3ccccc23)CC1)c1cccc2ccccc12 = 96
O=S(=O)(NCCCCN1CCN(c2nsc3ccccc23)CC1)c1cc2ccc(Cl)cc2s1 = 100

Please give measured inhibition at 1 µM of the following entry: `O=S(=O)(NCCCCN1CCC(c2noc3cc(F)ccc23)CC1)c1ccc(Br)cc1`
99

Please give measured inhibition at 1 µM of the following entry: `O=S(=O)(NCCCN1CCN(c2nsc3ccccc23)CC1)c1cccs1`
97

Please give measured inhibition at 1 µM of the following entry: `O=S(=O)(NCCCCN1CCN(c2cccc3[nH]ccc23)CC1)c1cc2ccccc2s1`
97

---

Quick reference: activation at 1 µM of the listed items.
biological target: dopaminergic D2 receptor (Homo sapiens); assay: Cellular functional assay, dopaminergic D2 receptor (agonism/antagonism); type: cell-based; conditions: HEK293; agonist effect, percent of control specific agonist response (3 μM dopamine for control); 1×10^−6 M; D2S (h), HEK-293 cells; read-out: D2-ag [%]
Sequence (P14416 whole entry): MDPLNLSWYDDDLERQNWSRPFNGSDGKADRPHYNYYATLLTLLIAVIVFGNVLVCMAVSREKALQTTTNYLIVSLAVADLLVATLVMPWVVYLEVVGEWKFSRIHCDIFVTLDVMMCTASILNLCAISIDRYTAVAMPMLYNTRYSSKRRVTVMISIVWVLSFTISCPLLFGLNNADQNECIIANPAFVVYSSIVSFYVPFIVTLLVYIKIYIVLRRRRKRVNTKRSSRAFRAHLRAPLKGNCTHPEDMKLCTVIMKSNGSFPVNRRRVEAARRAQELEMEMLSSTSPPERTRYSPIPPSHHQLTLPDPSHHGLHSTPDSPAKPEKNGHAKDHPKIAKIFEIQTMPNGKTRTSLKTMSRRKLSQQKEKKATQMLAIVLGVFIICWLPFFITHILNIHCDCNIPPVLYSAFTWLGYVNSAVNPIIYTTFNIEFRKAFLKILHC

Recorded activation at 1 µM, per entry:
O=S(=O)(NCCCCN1CCN(c2cccc3[nH]ccc23)CC1)c1cc2ccc(Cl)cc2s1 = 50%
O=c1[nH]c2ccc(S(=O)(=O)NCCCN3CCN(c4nsc5ccccc45)CC3)cc2o1 = 7%
O=S(=O)(NCCCCN1CCN(c2cccc3[nH]ccc23)CC1)c1csc2ccccc12 = 35%
O=S(=O)(NCCCCN1CCN(c2noc3ccccc23)CC1)c1cccc2ccccc12 = 2%
O=S(=O)(NCCCCN1CCC(c2noc3cc(F)ccc23)CC1)c1cc2ccc(Cl)cc2s1 = 9%
Cc1c(S(=O)(=O)NCCCCN2CCN(c3nsc4ccccc34)CC2)sc2ccc(F)cc12 = 10%
O=S(=O)(NCCCCN1CCN(c2cccc3[nH]ccc23)CC1)c1ccc(F)cc1 = 39%

Pending compound:
Please give measured activation at 1 µM of the following entry: `O=c1[nH]c2cccc(N3CCN(CCCNS(=O)(=O)c4cccc5ccccc45)CC3)c2[nH]1`
41%

---

Quick reference: inhibition at 1 µM of the listed items.
target: histaminergic H1 receptor (Homo sapiens); assay: Binding assay H1 (h), [3H]pyrilamine, HEK-293 cells; design: expressed in transfected cells; host or cells: HEK-293 cells; settings: read-out: H1 [%]
Sequence (P35367 whole entry): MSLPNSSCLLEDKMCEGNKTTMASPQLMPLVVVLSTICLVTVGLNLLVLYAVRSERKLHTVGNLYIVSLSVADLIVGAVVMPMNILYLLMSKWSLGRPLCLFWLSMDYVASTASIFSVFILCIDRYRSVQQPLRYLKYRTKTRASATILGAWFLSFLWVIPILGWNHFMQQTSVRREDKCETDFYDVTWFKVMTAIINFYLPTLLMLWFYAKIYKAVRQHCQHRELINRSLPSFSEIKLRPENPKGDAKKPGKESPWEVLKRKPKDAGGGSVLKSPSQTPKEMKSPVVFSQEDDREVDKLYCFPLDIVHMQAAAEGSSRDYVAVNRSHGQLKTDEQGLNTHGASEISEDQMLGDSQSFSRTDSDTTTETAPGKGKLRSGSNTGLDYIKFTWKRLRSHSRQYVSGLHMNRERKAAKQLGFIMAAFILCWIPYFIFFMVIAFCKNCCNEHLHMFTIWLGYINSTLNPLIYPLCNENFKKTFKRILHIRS
Numeric only. Scale: %

O=S(=O)(NCCCCN1CCN(c2cccc3[nH]ccc23)CC1)c1ccc2cc(Cl)ccc2c1 = 74
N#Cc1cccc(S(=O)(=O)NCCCN2CCC(c3noc4cc(F)ccc34)CC2)c1 = 95
O=S(=O)(NCCCN1CCN(c2nsc3ccccc23)CC1)c1ccc(F)cc1 = 97
O=S(=O)(NCCCCN1CCN(c2nsc3ccccc23)CC1)c1cccc(O)c1 = 97
O=S(=O)(NCCCN1CCN(c2nsc3ccccc23)CC1)c1cccs1 = 92
O=S(=O)(NCCCN1CCC(c2noc3cc(F)ccc23)CC1)c1cccc2ccccc12 = 78
O=S(=O)(NCCCCN1CCN(c2noc3ccccc23)CC1)c1ccc(-c2ccccc2)cc1 = 96

Pending molecule:
// output inhibition at 1 µM; input `O=S(=O)(NCCCCN1CCN(c2nsc3ccccc23)CC1)c1cccc2scnc12` ; system histaminergic H1 receptor (Homo sapiens)
93

---

Quick reference: inhibition at 1 µM of the listed items.
molecular target: serotoninergic 5-HT1A receptor (Homo sapiens, UniProt P08908); assay: Binding assay 5-HT1A (h), [3H]8-OH-DPAT, HEK-293 cells; parameters: expressed in transfected cells; host or cells: HEK-293 cells; details: read-out: 5-HT1A
Sequence (P08908 whole entry): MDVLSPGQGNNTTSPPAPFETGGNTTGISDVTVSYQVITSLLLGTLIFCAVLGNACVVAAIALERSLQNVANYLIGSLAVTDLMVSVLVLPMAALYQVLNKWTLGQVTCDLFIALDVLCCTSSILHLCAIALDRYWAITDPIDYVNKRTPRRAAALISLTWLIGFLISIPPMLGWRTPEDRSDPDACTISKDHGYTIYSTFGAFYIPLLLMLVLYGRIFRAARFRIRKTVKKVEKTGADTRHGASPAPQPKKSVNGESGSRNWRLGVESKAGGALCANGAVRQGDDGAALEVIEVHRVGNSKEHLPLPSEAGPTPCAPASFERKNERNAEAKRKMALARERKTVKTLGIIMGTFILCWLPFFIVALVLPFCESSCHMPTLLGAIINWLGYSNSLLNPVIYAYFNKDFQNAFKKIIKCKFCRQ
Numeric only. Scale: %

Recorded inhibition at 1 µM, per entry:
O=S(=O)(NCCCCN1CCN(c2nsc3ccccc23)CC1)c1ccc(F)cc1 [Compound 225] = 87
O=S(=O)(NCCCN1CCC(c2noc3cc(F)ccc23)CC1)c1ccc2cn[nH]c2c1 [Compound 352] = 89
O=S(=O)(NCCCN1CCN(c2nsc3ccccc23)CC1)c1cccc2ccccc12 [Compound 5] = 99
O=S(=O)(NCCCN1CCN(c2nsc3ccccc23)CC1)c1ccc(F)cc1 [Compound 248] = 97

Please give measured inhibition at 1 µM of the following entry: O=S(=O)(NCCCCN1CCN(c2nsc3ccccc23)CC1)c1ccc(C(F)(F)F)cc1 [Compound 234]
95

Please give measured inhibition at 1 µM of the following entry: O=S(=O)(NCCCN1CCC(c2noc3cc(F)ccc23)CC1)c1ccc2c(c1)CCO2 [Compound 350]
57

Please give measured inhibition at 1 µM of the following entry: O=S(=O)(NCCCCN1CCN(c2cccc3c2OCCO3)CC1)c1cccc(O)c1 [Compound 393]
93

Please give measured inhibition at 1 µM of the following entry: O=S(=O)(NCCCCN1CCC(c2noc3cc(F)ccc23)CC1)c1ccc(-c2ccccc2)cc1 [Compound 111]
39

---

test system: adrenergic α1 receptor; assay: Binding assay α1 (non-selective), [3H]prazosin, rat cerebral cortex; conditions: percent inhibition of control specific binding; compounds tested at 1×10^−6 M
Quick reference: α1 [%] of the listed items.
Numeric only. Scale: %

Recorded α1 [%], per entry:
O=S(=O)(NCCCN1CCC(c2noc3cc(F)ccc23)CC1)c1ccsc1 = 110
O=S(=O)(NCCCCN1CCC(c2noc3cc(F)ccc23)CC1)c1cccc2scnc12 = 98
O=S(=O)(NCCN1CCN(c2nsc3ccccc23)CC1)c1cccc2ccccc12 = 74
O=S(=O)(NCCCN1CCN(c2nsc3ccccc23)CC1)c1ccc(Cl)s1 = 93
Cc1c(S(=O)(=O)NCCCCN2CCC(c3noc4cc(F)ccc34)CC2)sc2ccc(F)cc12 = 99
O=S(=O)(NCCCCN1CCN(c2cccc3[nH]ccc23)CC1)c1cnc2ccccn12 = 96

// output α1 [%]; input `O=S(=O)(NCCCN1CCC(c2noc3cc(F)ccc23)CC1)c1ccc2c(c1)OCO2` ; system adrenergic α1 receptor
103

// output α1 [%]; input `O=S(=O)(NCCCN1CCC(c2noc3cc(F)ccc23)CC1)c1cccc(C(F)(F)F)c1` ; system adrenergic α1 receptor
101

// output α1 [%]; input `O=S(=O)(NCCCN1CCN(c2nsc3ccccc23)CC1)c1cnc2ccccn12` ; system adrenergic α1 receptor
95

// output α1 [%]; input `Cc1[nH]c2ccc(Cl)cc2c1C1=CCN(CCCCNS(=O)(=O)c2ccc(Cl)cc2)CC1` ; system adrenergic α1 receptor
76

// output α1 [%]; input `O=S(=O)(NCCCN1CCC(c2noc3cc(F)ccc23)CC1)c1cc2cccnc2[nH]1` ; system adrenergic α1 receptor
99

// output α1 [%]; input `O=S(=O)(NCCCN1CCN(c2nsc3ccccc23)CC1)c1ccc(F)cc1` ; system adrenergic α1 receptor
91

// output α1 [%]; input `Cn1ccc2cc(S(=O)(=O)NCCCN3CCC(c4noc5cc(F)ccc45)CC3)ccc21` ; system adrenergic α1 receptor
106

// output α1 [%]; input `O=S(=O)(NCCCCN1CCC(c2noc3cc(F)ccc23)CC1)c1ccc2cc(Cl)ccc2c1` ; system adrenergic α1 receptor
98

// output α1 [%]; input `COc1cccc(S(=O)(=O)NCCCN2CCN(c3nsc4ccccc34)CC2)c1` ; system adrenergic α1 receptor
92

// output α1 [%]; input `O=c1[nH]c2cccc(N3CCN(CCCCNS(=O)(=O)c4ccc(Cl)cc4)CC3)c2[nH]1` ; system adrenergic α1 receptor
88

// output α1 [%]; input `Cc1c(S(=O)(=O)NCCCCN2CCN(c3noc4ccccc34)CC2)sc2ccc(F)cc12` ; system adrenergic α1 receptor
96
